// values below are reported IC50 Ratio (IC50 compound/IC50 PYY(3-36))
target_under_test: human Y2 receptor (human) (UniProt P49146)
Sequence (P49146 whole entry): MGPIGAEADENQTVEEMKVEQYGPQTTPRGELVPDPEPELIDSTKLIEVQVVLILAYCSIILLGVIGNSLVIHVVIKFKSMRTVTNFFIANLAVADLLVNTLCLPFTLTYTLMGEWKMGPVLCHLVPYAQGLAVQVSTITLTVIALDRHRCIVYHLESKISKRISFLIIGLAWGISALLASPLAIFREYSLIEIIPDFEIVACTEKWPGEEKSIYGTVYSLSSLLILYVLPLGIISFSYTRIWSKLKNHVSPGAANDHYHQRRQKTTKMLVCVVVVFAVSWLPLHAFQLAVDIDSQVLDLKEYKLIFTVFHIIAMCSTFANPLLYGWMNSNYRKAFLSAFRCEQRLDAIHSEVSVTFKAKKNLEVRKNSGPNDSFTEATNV
assay_notes: RBA: displacement of [125I]-PYY from hY2R/CHO membranes
Non-standard residues stand in square brackets, D forms with d. *: point of attachment. X4 = ((1S)-1-Carboxy-3-methylbutyl)carbamoyl, CC(C)C[C@H](NC(=O)*)C(=O)O; (3-carboxypropyl)carbamoyl = O=C(O)CCCNC(=O)*; 4Pal = N[C@@H](Cc1ccncc1)C(=O)O; Cha = N[C@@H](CC1CCCCC1)C(=O)O; Cit = NC(=O)NCCC[C@H](N)C(=O)O; Iva = CC[C@](C)(N)C(=O)O; Aib = CC(C)(N)C(=O)O
value_kind: IC50 Ratio (IC50 compound/IC50 PYY(3-36))

{"binder": "{(3-carboxypropyl)carbamoyl}-S[dP][Iva][4Pal][Cha][Aib]NK[Aib]TRQR[Cha]-NH2 (SMILES CC[C@](C)(NC(=O)[C@H]1CCCN1C(=O)[C@H](CO)NC(=O)NCCCC(=O)O)C(=O)N[C@@H](Cc1ccncc1)C(=O)N[C@@H](CC1CCCCC1)C(=O)NC(C)(C)C(=O)N[C@@H](CC(N)=O)C(=O)N[C@@H](CCCCN)C(=O)NC(C)(C)C(=O)N[C@H](C(=O)N[C@@H](CCCNC(=N)N)C(=O)N[C@@H](CCC(N)=O)C(=O)N[C@@H](CCCNC(=N)N)C(=O)N[C@@H](CC1CCCCC1)C(N)=O)[C@@H](C)O) [(3-Carboxypropyl)carbamoyl-[D-Pro24, Iva25, Pya(4)26, Cha27,36, Aib28,31, Lys30]-PYY(23-36)]", "assay_result": 1.6}
{"binder": "Ac-S[dP][Iva][4Pal][Cha][Aib]NK[Aib]TRQR[Cha]-NH2 (SMILES CC[C@](C)(NC(=O)[C@H]1CCCN1C(=O)[C@H](CO)NC(C)=O)C(=O)N[C@@H](Cc1ccncc1)C(=O)N[C@@H](CC1CCCCC1)C(=O)NC(C)(C)C(=O)N[C@@H](CC(N)=O)C(=O)N[C@@H](CCCCN)C(=O)NC(C)(C)C(=O)N[C@H](C(=O)N[C@@H](CCCNC(=N)N)C(=O)N[C@@H](CCC(N)=O)C(=O)N[C@@H](CCCNC(=N)N)C(=O)N[C@@H](CC1CCCCC1)C(N)=O)[C@@H](C)O) [Ac-[D-Pro24, Iva25, Pya(4)26, Cha27,36, Aib28,31, Lys30]-PYY(23-36)]", "assay_result": 2.9}
{"binder": "Ac-S[dP][Cit]H[Cha][Aib]NK[Aib]TRQR[Cha]-NH2 (SMILES CC(=O)N[C@@H](CO)C(=O)N1CCC[C@@H]1C(=O)N[C@@H](CCCNC(N)=O)C(=O)N[C@@H](Cc1c[nH]cn1)C(=O)N[C@@H](CC1CCCCC1)C(=O)NC(C)(C)C(=O)N[C@@H](CC(N)=O)C(=O)N[C@@H](CCCCN)C(=O)NC(C)(C)C(=O)N[C@H](C(=O)N[C@@H](CCCNC(=N)N)C(=O)N[C@@H](CCC(N)=O)C(=O)N[C@@H](CCCNC(=N)N)C(=O)N[C@@H](CC1CCCCC1)C(N)=O)[C@@H](C)O) [Ac-[D-Pro24, Cit25, Cha27,36, Aib28,31, Lys30]-PYY(23-36)]", "assay_result": 6.2}
{"binder": "X4-E[dP]R[4Pal][Cha][Aib]NK[Aib]TRQR[Cha]-NH2 (SMILES CC(C)C[C@H](NC(=O)N[C@@H](CCC(=O)O)C(=O)N1CCC[C@@H]1C(=O)N[C@@H](CCCNC(=N)N)C(=O)N[C@@H](Cc1ccncc1)C(=O)N[C@@H](CC1CCCCC1)C(=O)NC(C)(C)C(=O)N[C@@H](CC(N)=O)C(=O)N[C@@H](CCCCN)C(=O)NC(C)(C)C(=O)N[C@H](C(=O)N[C@@H](CCCNC(=N)N)C(=O)N[C@@H](CCC(N)=O)C(=O)N[C@@H](CCCNC(=N)N)C(=O)N[C@@H](CC1CCCCC1)C(N)=O)[C@@H](C)O)C(=O)O)", "assay_result": 2.2}

Attribution: patent US20120172293A1
